- assay.method.text: PK parameters in preclinical species
- Format: in vivo
- particulars: in vivo, iv; Monkey; single dose 0.1 mg/kg i.v. or 0.3 mg/kg p.o.; read-out: Vss
Recorded Vd by entry

molecule	units.symbol	Vd
COc1cc2c(cc1OC(C)C)[C@H](c1ccc(Cl)cc1)N(c1ccc(N(C)C[C@H]3CC[C@H](N4CCNC(=O)C4)CC3)cc1)C(=O)C2 [NVP-CFC218]	L/kg	2.1
COc1cc2c(cc1OC(C)C)[C@H](c1ccc(Cl)cc1)N(c1ccc(N(C)C[C@H]3CC[C@H](N4CCN(C)C(=O)C4)CC3)cc1)C(=O)C2 [NVP-CGM097]	L/kg	2

* * *

- System: cell lines from the Cancer Cell Line Encyclopedia (CCLE)
- assay.method.text: High-throughput cell viability assay, CCLE cell line panel (n = 356)
- Assay type: cell-based, human
- particulars: Homo sapiens, NCI-H1915, NCI-H1915, TP53 MUT
pIC50: −log10 of the molar value.

structure.smiles.string	pIC50
COc1cc2c(cc1OC(C)C)[C@H](c1ccc(Cl)cc1)N(c1ccc(N(C)C[C@H]3CC[C@H](N4CCNC(=O)C4)CC3)cc1)C(=O)C2	< 5.10

* * *

- Tested on: cell lines from the Cancer Cell Line Encyclopedia (CCLE)
- assay.method.text: High-throughput cell viability assay, CCLE cell line panel (n = 356)
- Type: cell-based, human
- particulars: Homo sapiens, PSN1, PSN1, TP53 MUT

structure.smiles.string	IC50
COc1cc2c(cc1OC(C)C)[C@H](c1ccc(Cl)cc1)N(c1ccc(N(C)C[C@H]3CC[C@H](N4CCNC(=O)C4)CC3)cc1)C(=O)C2	> 8 µM

* * *

- assay.method.text: PK parameters in preclinical species
- Assay type: in vivo
- particulars: in vivo, iv; Rat; single dose 1 mg/kg i.v. or 3 mg/kg p.o.; read-out: Vss

structure.smiles.string	Vd, L/kg
COc1cc2c(cc1OC(C)C)[C@H](c1ccc(Cl)cc1)N(c1ccc(N(C)C[C@H]3CC[C@H](N4CCNC(=O)C4)CC3)cc1)C(=O)C2	8
COc1cc2c(cc1OC(C)C)[C@H](c1ccc(Cl)cc1)N(c1ccc(N(C)C[C@H]3CC[C@H](N4CCN(C)C(=O)C4)CC3)cc1)C(=O)C2	6.4

* * *

- Tested on: cell lines from the Cancer Cell Line Encyclopedia (CCLE)
- assay.method.text: High-throughput cell viability assay, CCLE cell line panel (n = 356)
- Type: cell-based, human
- particulars: Homo sapiens, J82, TP53 MUT

structure.smiles.string	study.system	IC50
COc1cc2c(cc1OC(C)C)[C@H](c1ccc(Cl)cc1)N(c1ccc(N(C)C[C@H]3CC[C@H](N4CCNC(=O)C4)CC3)cc1)C(=O)C2	cell lines from the Cancer Cell Line Encyclopedia (CCLE)	> 8 µM

* * *

- Test system: cell lines from the Cancer Cell Line Encyclopedia (CCLE)
- assay.method.text: High-throughput cell viability assay, CCLE cell line panel (n = 356)
- Assay type: cell-based, human
- particulars: Homo sapiens, CAKI-2, Caki-2, TP53 WT
pIC50: −log10 of the molar value.
measured.property: pIC50

structure.smiles.string	measured.number
COc1cc2c(cc1OC(C)C)[C@H](c1ccc(Cl)cc1)N(c1ccc(N(C)C[C@H]3CC[C@H](N4CCNC(=O)C4)CC3)cc1)C(=O)C2	5.44

* * *

Listed next: entries and their corresponding AUC(0-inf).
- assay.method.text: PK parameters in preclinical species
- Assay type: in vivo
- particulars: in vivo, iv; Mouse; 1 mg/kg i.v.; dose-normalized to 1 mg/kg; read-out: AUCinf i.v.

compound	AUC(0-inf)
COc1cc2c(cc1OC(C)C)[C@H](c1ccc(Cl)cc1)N(c1ccc(N(C)C[C@H]3CC[C@H](N4CCNC(=O)C4)CC3)cc1)C(=O)C2 [NVP-CFC218]	2.8 µM·h
COc1cc2c(cc1OC(C)C)[C@H](c1ccc(Cl)cc1)N(c1ccc(N(C)C[C@H]3CC[C@H](N4CCN(C)C(=O)C4)CC3)cc1)C(=O)C2 [NVP-CGM097]	4.7 µM·h

* * *

- Tested on: cell lines from the Cancer Cell Line Encyclopedia (CCLE)
- assay.method.text: High-throughput cell viability assay, CCLE cell line panel (n = 356)
- Format: cell-based, human
- particulars: Homo sapiens, G-402, G-402, TP53 WT
pIC50: −log10 of the molar value.

structure.smiles.string	pIC50
COc1cc2c(cc1OC(C)C)[C@H](c1ccc(Cl)cc1)N(c1ccc(N(C)C[C@H]3CC[C@H](N4CCNC(=O)C4)CC3)cc1)C(=O)C2	5.64

* * *

- System: cell lines from the Cancer Cell Line Encyclopedia (CCLE)
- assay.method.text: High-throughput cell viability assay, CCLE cell line panel (n = 356)
- Type: cell-based, human
- particulars: Homo sapiens, ONS-76, ONS-76, TP53 WT
pIC50: −log10 of the molar value.

structure.smiles.string	pIC50
COc1cc2c(cc1OC(C)C)[C@H](c1ccc(Cl)cc1)N(c1ccc(N(C)C[C@H]3CC[C@H](N4CCNC(=O)C4)CC3)cc1)C(=O)C2	< 5.10

* * *

- Tested on: cell lines from the Cancer Cell Line Encyclopedia (CCLE)
- assay.method.text: High-throughput cell viability assay, CCLE cell line panel (n = 356)
- Type: cell-based, human
- particulars: Homo sapiens, KMRC-1, read-out: NVP- CFC218 IC50 (µM), cell line KMRC-1, kidney, TP53 WT
measured.property: IC50

structure.smiles.string	study.system	result
COc1cc2c(cc1OC(C)C)[C@H](c1ccc(Cl)cc1)N(c1ccc(N(C)C[C@H]3CC[C@H](N4CCNC(=O)C4)CC3)cc1)C(=O)C2	cell lines from the Cancer Cell Line Encyclopedia (CCLE)	> 8 µM

* * *

- Tested on: cell lines from the Cancer Cell Line Encyclopedia (CCLE)
- assay.method.text: High-throughput cell viability assay, CCLE cell line panel (n = 356)
- Type: cell-based, human
- particulars: Homo sapiens, NCI-H211, NCI-H211, TP53 MUT
pIC50: −log10 of the molar value.

structure.smiles.string	pIC50
COc1cc2c(cc1OC(C)C)[C@H](c1ccc(Cl)cc1)N(c1ccc(N(C)C[C@H]3CC[C@H](N4CCNC(=O)C4)CC3)cc1)C(=O)C2	< 5.10

* * *

- Tested on: cell lines from the Cancer Cell Line Encyclopedia (CCLE)
- assay.method.text: High-throughput cell viability assay, CCLE cell line panel (n = 356)
- Format: cell-based, human
- particulars: Homo sapiens, NCI-H2087, NCI-H2087, TP53 MUT
pIC50: −log10 of the molar value.
measured.property: pIC50

structure.smiles.string	measured.property	result
COc1cc2c(cc1OC(C)C)[C@H](c1ccc(Cl)cc1)N(c1ccc(N(C)C[C@H]3CC[C@H](N4CCNC(=O)C4)CC3)cc1)C(=O)C2	pIC50	< 5.10

* * *

- System: cell lines from the Cancer Cell Line Encyclopedia (CCLE)
- assay.method.text: High-throughput cell viability assay, CCLE cell line panel (n = 356)
- Assay type: cell-based, human
- particulars: Homo sapiens, NCI-H1734, NCI-H1734, TP53 MUT
pIC50: −log10 of the molar value.
measured.property: pIC50

structure.smiles.string	result
COc1cc2c(cc1OC(C)C)[C@H](c1ccc(Cl)cc1)N(c1ccc(N(C)C[C@H]3CC[C@H](N4CCNC(=O)C4)CC3)cc1)C(=O)C2	< 5.10

* * *

This section presents compounds with their documented Tmax values.
- assay.method.text: PK parameters in preclinical species
- Type: in vivo
- particulars: in vivo, po; Mouse; 3 mg/kg p.o.
measured.property: Tmax (h)

structure.smiles.string	measured.property	measured.number
COc1cc2c(cc1OC(C)C)[C@H](c1ccc(Cl)cc1)N(c1ccc(N(C)C[C@H]3CC[C@H](N4CCNC(=O)C4)CC3)cc1)C(=O)C2	Tmax	2
COc1cc2c(cc1OC(C)C)[C@H](c1ccc(Cl)cc1)N(c1ccc(N(C)C[C@H]3CC[C@H](N4CCN(C)C(=O)C4)CC3)cc1)C(=O)C2	Tmax	4

* * *

- Test system: cell lines from the Cancer Cell Line Encyclopedia (CCLE)
- assay.method.text: High-throughput cell viability assay, CCLE cell line panel (n = 356)
- Assay type: cell-based, human
- particulars: Homo sapiens, H4, TP53 WT

molecule	units.symbol	IC50
COc1cc2c(cc1OC(C)C)[C@H](c1ccc(Cl)cc1)N(c1ccc(N(C)C[C@H]3CC[C@H](N4CCNC(=O)C4)CC3)cc1)C(=O)C2 [NVP-CFC218]	nM	2840

* * *

- Tested on: cell lines from the Cancer Cell Line Encyclopedia (CCLE)
- assay.method.text: High-throughput cell viability assay, CCLE cell line panel (n = 356)
- Type: cell-based, human
- particulars: Homo sapiens, SU-DHL-8, SU-DHL-8, TP53 MUT
measured.property: IC50

structure.smiles.string	study.system	measured.property	result
COc1cc2c(cc1OC(C)C)[C@H](c1ccc(Cl)cc1)N(c1ccc(N(C)C[C@H]3CC[C@H](N4CCNC(=O)C4)CC3)cc1)C(=O)C2	cell lines from the Cancer Cell Line Encyclopedia (CCLE)	IC50	> 8 µM
